Tested on: primary human immune cells
MEASUREMENT NOTES: viability of primary human immune cells, formazan-based Orangu assay (ranges over cell types)
SETUP CONDITIONS: range over all immune cell types tested; 48 h; read-out: IC50, immune cell type-dependent cytotoxicity
Experimental: 2 × 10^5 CD4^+ T cells, 1 × 10^5 B cells, 1 × 10^5 monocytes, 1 × 10^5 M1 MdMs, or 1 × 10^5 M2 MdMs were treated with A366, MS31, or vehicle for 48 h. The viability was determined with the Orangu^TM assay as described by the manufacturer.
pIC50: −log10 of the molar value.
PARAMETER: pIC50

Query (molecule): COc1c(CN)cc(CN)cc1OCCCN1Cc2ccccc2C1 ; field requested: pIC50
2.51 to 4.96

###

System: CD4+ T cells
MEASUREMENT NOTES: viability assay (Orangu, formazan-based), CD4+ T cells
Set-up: species or system human
SETUP CONDITIONS: 48 h, n = 3, read-out: T cell viability IC50
PARAMETER: pIC50
Hey, just a heads up that pIC50 is the negative log base 10 of the concentration in molar.

Test system CD4+ T cells; read-out pIC50; what value for COc1c(CN)cc(CN)cc1OCCCN1Cc2ccccc2C1 [MS31] ?
4.66
